Data provenance: ChEMBL document CHEMBL4513143

System: Staphylococcus aureus
Condition Parameters: Concentration 32 ug.mL-1; ASSAY_TEST Inhibition of Bacterial Growth; detection method Absorption (OD600); MEDIA CAMHB; plate type 384well; NBS; CORNING #3640; time 18 hr
Description: Antibacterial activity against Staphylococcus aureus MRSA ATCC 43300 (CO-ADD:GP_020); MIC in CAMBH media, using NBS plates, by OD(600)
Entries with a potency or affinity are not part of this list.
Test Readout: Inhibition (%)
Write it as a number; the unit % goes unstated.

Input line: For CCN(CC)CC.C[C@H](CC1O[C@H]([C@H](O)CO)[C@@H](O)[C@H](O)[C@@H]1O)OP(=O)(O)OC[C@H]1O[C@@H](n2cnc3c(N)ncnc32)[C@H](O)[C@@H]1O (some centres not stated) , write its Inhibition.
Output line: 30.75

Input line: For CCN(CC)CC.O=P(O)(O)OC1C[C@@H](O)[C@H](O)[C@@H]([C@H](O)CO)O1 (some centres not stated) , write its Inhibition.
Output line: 23.92

Input line: For OC[C@@H](O)[C@H]1OC(O)C[C@@H](O)[C@@H]1O (some centres not stated) , write its Inhibition.
Output line: 21.66

Input line: For CC(=O)CC1O[C@H]([C@@H](O)CO)[C@@H](O)[C@H](O)[C@@H]1O (some centres not stated) , write its Inhibition.
Output line: 21.72
